Please provide measured GI50 for the entries that follow.
Respond with the bare value in µM.

Enter recorded GI50 with SW-620 for COc1cc(-c2n[nH]nc2-c2ccc3ccccc3n2)cc(OC)c1OC [Example 4] here.
0.0295

Enter recorded GI50 with SW-620 for COc1cc(-c2n[nH]nc2-c2ccc3c(c2)OCCO3)cc(OC)c1OC [Example 7] here.
0.105

Enter recorded GI50 with SW-620 for COc1cc(-c2n[nH]nc2-c2cc(OC)c(OC)c(OC)c2)cc(OC)c1OC [Example 3] here.
0.0406

###

Please provide measured TGI for the entries that follow.
- System: U251
- METHOD_DESCRIPTION: NCI 60 panel five-dose growth inhibition, CNS Cancer
- Assay type: cell-based, human
Respond with the bare value in µM.

Return value of TGI for input COc1ccc(-c2n[nH]nc2-c2cc(OC)c(OC)c(OC)c2)cc1 [Example 6] , no commentary.
22.7

Return value of TGI for input COc1ccc(-c2n[nH]nc2-c2cc(OC)cc(OC)c2)cc1 [Example 5] , no commentary.
16.5

Return value of TGI for input COc1cc(-c2n[nH]nc2-c2ccc3c(c2)OCCO3)cc(OC)c1OC [Example 7] , no commentary.
11.2

Return value of TGI for input COc1cc(-c2n[nH]nc2-c2cc(OC)c(OC)c(OC)c2)cc(OC)c1OC [Example 3] , no commentary.
46.9

###

- Test system: MOLT-4
Returns: string. Value is true if measured GI50 is below 50 nM, and false if it is greater than or equal to it.

Record COc1ccc(-c2n[nH]nc2-c2cc(OC)cc(OC)c2)cc1 : is its GI50 strictly below 50 nM?
true

Record COc1cc(-c2n[nH]nc2-c2cc(OC)c(OC)c(OC)c2)cc(OC)c1OC : is its GI50 strictly below 50 nM?
false

Record COc1ccc(-c2n[nH]nc2-c2cc(OC)c(OC)c(OC)c2)cc1 : is its GI50 strictly below 50 nM?
true

Record COc1cc(-c2n[nH]nc2-c2ccc3ccccc3n2)cc(OC)c1OC : is its GI50 strictly below 50 nM?
true

Record COc1cc(-c2n[nH]nc2-c2ccc3c(c2)OCCO3)cc(OC)c1OC : is its GI50 strictly below 50 nM?
false

###

- System: MCF7
- METHOD_DESCRIPTION: NCI 60 panel five-dose growth inhibition, Breast Cancer
- Type: cell-based, human
Please provide measured TGI for the entries that follow.

Return value of TGI for input COc1cc(-c2n[nH]nc2-c2cc(OC)c(OC)c(OC)c2)cc(OC)c1OC , no commentary.
>100 µM

Return value of TGI for input COc1cc(-c2n[nH]nc2-c2ccc3c(c2)OCCO3)cc(OC)c1OC , no commentary.
>100 µM

Return value of TGI for input COc1ccc(-c2n[nH]nc2-c2cc(OC)cc(OC)c2)cc1 , no commentary.
>100 µM

Return value of TGI for input COc1ccc(-c2n[nH]nc2-c2cc(OC)c(OC)c(OC)c2)cc1 , no commentary.
37.9 µM

Return value of TGI for input COc1cc(-c2n[nH]nc2-c2ccc3ccccc3n2)cc(OC)c1OC , no commentary.
>100 µM

###

Please provide measured TGI for the entries that follow.
- Test system: CCRF-CEM
- METHOD_DESCRIPTION: NCI 60 panel five-dose growth inhibition, Leukemia
- Format: cell-based, human
Respond with the bare value in µM.

Return value of TGI for input COc1cc(-c2n[nH]nc2-c2ccc3ccccc3n2)cc(OC)c1OC , no commentary.
21.8

Return value of TGI for input COc1ccc(-c2n[nH]nc2-c2cc(OC)cc(OC)c2)cc1 , no commentary.
46.3

Reference for the values: patent US10239844B2
